system.name: T1, Glycoprotein VI extracellular domain (Gln21-Lys267) (Homo sapiens, UniProt Q9HCN6 SEQ:1-247)
T1 chain: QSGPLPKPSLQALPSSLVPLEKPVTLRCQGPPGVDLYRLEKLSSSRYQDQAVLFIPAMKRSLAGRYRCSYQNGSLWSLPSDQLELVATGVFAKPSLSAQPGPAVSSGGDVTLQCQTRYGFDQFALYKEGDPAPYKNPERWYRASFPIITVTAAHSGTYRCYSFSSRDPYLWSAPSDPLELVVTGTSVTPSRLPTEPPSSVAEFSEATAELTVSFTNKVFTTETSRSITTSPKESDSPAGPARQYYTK
test.details: competition; competition with radiolabeled parent ligand
condition.summary: tags: C-terminal His6; R&D Systems 3627-GP

# binder, Kd
rows = [
    ("GGAGGACGGCGCGCCUGGCAUAAGCCUCC (ssRNA, RB567 with 5' branched 40 kDa PEG) [RB571]", "~5 nM"),
]
